# test.target: BCL6 BTB domain (Homo sapiens (Human), UniProt P41182)
# test.summary: Surface plasmon resonance (SPR) assay
# Type: binding
# condition.label: BCL6 BTB domain captured on SA chip, single cycle kinetics
measure.name: Kd

A selection of reference data follows.
>>> df
                                   compound                               test_target  measure_name   result
0  Cn1cnc2c(c(-c3cc(C(N)=O)c(O)c(F)c3F)cn2CC(=O)Nc2cc(N3C4CCC3CN(CC(F)(F)F)C4)ncc2Cl)c1=O  BCL6 BTB domain (Homo sapiens (Human), UniProt P41182)            Kd  84.9 nM
1  Cn1cnc2c(c(-c3cc(C(N)=O)c(O)c(F)c3F)cn2CC(=O)Nc2cc(N3CC4CC3CO4)ncc2Cl)c1=O (stereo not drawn)  BCL6 BTB domain (Homo sapiens (Human), UniProt P41182)            Kd  83.7 nM

INPUT: Quick one: give measured Kd for Cc1nc2c(c(-c3cc(F)c(O)c(C(N)=O)c3)cn2CC(=O)Nc2cc(N3CC(C)(C)NC(C)(C)C3)ncc2Cl)c(=O)n1C
OUTPUT: 12.4 nM
